- Assay Target: Protein polybromo-1 (Homo sapiens)
- Test Name: Binding affinity to human partial length DNA-tagged PBRM1 BD1 expressed in bacteria by BROMOscan method
Property Measured: Kd

[ask] Any idea what Kd was measured for `CC(=O)N1c2ccc(C3=CCNCC3)cc2N(Cc2ccccc2CO)C[C@@H]1C1CC1` ?
[reply] > 30.2 µM

====

- Assay Target: Transcription initiation factor TFIID subunit 1 (Homo sapiens, UniProt P21675)
- Sequence (P21675 whole entry): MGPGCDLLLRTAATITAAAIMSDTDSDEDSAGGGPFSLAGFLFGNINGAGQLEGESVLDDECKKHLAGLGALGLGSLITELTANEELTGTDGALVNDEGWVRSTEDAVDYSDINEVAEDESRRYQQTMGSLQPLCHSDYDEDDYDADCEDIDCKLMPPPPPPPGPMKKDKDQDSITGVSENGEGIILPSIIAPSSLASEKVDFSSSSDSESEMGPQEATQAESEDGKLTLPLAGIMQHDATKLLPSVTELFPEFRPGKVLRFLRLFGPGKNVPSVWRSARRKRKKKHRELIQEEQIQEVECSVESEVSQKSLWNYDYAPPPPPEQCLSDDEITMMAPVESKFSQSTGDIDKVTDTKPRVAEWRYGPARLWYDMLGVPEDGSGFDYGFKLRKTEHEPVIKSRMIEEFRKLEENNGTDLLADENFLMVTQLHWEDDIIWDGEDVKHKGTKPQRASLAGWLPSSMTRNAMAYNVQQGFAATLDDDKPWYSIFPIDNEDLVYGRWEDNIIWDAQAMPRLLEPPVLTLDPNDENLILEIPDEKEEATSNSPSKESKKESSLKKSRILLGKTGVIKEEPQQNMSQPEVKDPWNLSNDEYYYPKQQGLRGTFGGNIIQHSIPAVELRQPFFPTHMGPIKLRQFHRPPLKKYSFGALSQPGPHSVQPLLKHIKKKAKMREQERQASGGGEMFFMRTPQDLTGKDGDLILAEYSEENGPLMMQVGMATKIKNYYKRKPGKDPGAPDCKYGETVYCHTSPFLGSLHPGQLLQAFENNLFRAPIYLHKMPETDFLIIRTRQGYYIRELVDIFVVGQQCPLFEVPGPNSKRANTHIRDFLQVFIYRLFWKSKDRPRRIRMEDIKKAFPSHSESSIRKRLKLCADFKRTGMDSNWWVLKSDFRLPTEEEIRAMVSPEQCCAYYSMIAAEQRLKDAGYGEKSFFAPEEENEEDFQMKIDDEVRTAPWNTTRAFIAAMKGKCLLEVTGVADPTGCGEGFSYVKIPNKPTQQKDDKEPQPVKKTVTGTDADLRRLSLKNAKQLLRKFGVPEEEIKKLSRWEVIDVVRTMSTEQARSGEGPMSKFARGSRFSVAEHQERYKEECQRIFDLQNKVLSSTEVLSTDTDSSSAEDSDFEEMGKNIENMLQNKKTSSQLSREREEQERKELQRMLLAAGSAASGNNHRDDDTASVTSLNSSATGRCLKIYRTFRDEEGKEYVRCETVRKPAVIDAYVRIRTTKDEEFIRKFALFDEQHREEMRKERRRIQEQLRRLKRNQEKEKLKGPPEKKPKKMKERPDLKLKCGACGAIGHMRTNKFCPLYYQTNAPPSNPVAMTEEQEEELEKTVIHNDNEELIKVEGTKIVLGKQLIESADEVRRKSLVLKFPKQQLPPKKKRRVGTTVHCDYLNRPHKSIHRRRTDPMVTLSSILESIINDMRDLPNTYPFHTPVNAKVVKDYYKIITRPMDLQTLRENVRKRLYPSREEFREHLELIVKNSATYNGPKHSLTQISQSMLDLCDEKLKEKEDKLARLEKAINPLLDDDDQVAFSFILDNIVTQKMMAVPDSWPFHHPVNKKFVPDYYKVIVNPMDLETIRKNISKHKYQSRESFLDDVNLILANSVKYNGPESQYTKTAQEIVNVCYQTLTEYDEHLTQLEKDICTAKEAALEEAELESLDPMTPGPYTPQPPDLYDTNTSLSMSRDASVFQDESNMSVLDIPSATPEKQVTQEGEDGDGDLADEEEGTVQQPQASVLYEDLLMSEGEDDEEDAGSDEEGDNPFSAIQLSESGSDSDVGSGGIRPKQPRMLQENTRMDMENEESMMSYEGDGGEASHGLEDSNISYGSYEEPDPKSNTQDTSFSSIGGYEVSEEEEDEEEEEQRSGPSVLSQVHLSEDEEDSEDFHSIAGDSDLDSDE
- Test Name: Binding affinity to human partial length DNA-tagged TAF1 BD2 expressed in bacterial by BROMOscan method
Property Measured: pKd
Give only the number. pKd is defined as minus log10 of concentration in molar units.

[ask] Any idea what pKd was measured for `CC(=O)N1c2ccc(C3=CCNCC3)cc2N(Cc2ccccc2CO)C[C@@H]1C1CC1` ?
[reply] 4.84

====

- Assay Target: Bromodomain-containing protein 3 (Homo sapiens)
- Test Name: Binding affinity to human partial length DNA-tagged BRD3 BD1 expressed in bacterial by BROMOscan method
Property Measured: Kd (nM)
Kindly answer with a numeric value in nM, unit omitted.

[ask] Any idea what Kd was measured for `CC(=O)N1c2ccc(C3=CCNCC3)cc2N(Cc2ccccc2CO)C[C@@H]1C1CC1` ?
[reply] 912

====

- Assay Target: Bromodomain testis-specific protein (Homo sapiens)
- Test Name: Inhibition of BRDT BD2 (unknown origin) after 30 mins by TR-FRET assay
Please provide measured pIC50 for the entries that follow.
Give only the number. pIC50 is defined as minus log10 of concentration in molar units.

[ask] Any idea what pIC50 was measured for `CC(=O)N1c2ccc(-c3cnc(C(N)=O)nc3)cc2N(Cc2ccccc2CO)C[C@@H]1C1CC1` ?
[reply] 7.00

[ask] Any idea what pIC50 was measured for `CC(=O)N1c2ccc(C3=CCNCC3)cc2N(Cc2ccccc2CO)C[C@@H]1C1CC1` ?
[reply] 6.70

====

- Assay Target: Bromodomain-containing protein 8 (Homo sapiens, UniProt Q9H0E9)
- Test Name: Binding affinity to DNA-tagged BRD8 (unknown origin) by BROMOscan method
pKd: −log10 of the molar value.
Property Measured: pKd

[ask] Any idea what pKd was measured for `CC(=O)N1c2ccc(C3=CCNCC3)cc2N(Cc2ccccc2CO)C[C@@H]1C1CC1` ?
[reply] < 4.52

====

- Assay Target: CREB-binding protein (Homo sapiens, UniProt Q92793)
- Sequence (Q92793 whole entry): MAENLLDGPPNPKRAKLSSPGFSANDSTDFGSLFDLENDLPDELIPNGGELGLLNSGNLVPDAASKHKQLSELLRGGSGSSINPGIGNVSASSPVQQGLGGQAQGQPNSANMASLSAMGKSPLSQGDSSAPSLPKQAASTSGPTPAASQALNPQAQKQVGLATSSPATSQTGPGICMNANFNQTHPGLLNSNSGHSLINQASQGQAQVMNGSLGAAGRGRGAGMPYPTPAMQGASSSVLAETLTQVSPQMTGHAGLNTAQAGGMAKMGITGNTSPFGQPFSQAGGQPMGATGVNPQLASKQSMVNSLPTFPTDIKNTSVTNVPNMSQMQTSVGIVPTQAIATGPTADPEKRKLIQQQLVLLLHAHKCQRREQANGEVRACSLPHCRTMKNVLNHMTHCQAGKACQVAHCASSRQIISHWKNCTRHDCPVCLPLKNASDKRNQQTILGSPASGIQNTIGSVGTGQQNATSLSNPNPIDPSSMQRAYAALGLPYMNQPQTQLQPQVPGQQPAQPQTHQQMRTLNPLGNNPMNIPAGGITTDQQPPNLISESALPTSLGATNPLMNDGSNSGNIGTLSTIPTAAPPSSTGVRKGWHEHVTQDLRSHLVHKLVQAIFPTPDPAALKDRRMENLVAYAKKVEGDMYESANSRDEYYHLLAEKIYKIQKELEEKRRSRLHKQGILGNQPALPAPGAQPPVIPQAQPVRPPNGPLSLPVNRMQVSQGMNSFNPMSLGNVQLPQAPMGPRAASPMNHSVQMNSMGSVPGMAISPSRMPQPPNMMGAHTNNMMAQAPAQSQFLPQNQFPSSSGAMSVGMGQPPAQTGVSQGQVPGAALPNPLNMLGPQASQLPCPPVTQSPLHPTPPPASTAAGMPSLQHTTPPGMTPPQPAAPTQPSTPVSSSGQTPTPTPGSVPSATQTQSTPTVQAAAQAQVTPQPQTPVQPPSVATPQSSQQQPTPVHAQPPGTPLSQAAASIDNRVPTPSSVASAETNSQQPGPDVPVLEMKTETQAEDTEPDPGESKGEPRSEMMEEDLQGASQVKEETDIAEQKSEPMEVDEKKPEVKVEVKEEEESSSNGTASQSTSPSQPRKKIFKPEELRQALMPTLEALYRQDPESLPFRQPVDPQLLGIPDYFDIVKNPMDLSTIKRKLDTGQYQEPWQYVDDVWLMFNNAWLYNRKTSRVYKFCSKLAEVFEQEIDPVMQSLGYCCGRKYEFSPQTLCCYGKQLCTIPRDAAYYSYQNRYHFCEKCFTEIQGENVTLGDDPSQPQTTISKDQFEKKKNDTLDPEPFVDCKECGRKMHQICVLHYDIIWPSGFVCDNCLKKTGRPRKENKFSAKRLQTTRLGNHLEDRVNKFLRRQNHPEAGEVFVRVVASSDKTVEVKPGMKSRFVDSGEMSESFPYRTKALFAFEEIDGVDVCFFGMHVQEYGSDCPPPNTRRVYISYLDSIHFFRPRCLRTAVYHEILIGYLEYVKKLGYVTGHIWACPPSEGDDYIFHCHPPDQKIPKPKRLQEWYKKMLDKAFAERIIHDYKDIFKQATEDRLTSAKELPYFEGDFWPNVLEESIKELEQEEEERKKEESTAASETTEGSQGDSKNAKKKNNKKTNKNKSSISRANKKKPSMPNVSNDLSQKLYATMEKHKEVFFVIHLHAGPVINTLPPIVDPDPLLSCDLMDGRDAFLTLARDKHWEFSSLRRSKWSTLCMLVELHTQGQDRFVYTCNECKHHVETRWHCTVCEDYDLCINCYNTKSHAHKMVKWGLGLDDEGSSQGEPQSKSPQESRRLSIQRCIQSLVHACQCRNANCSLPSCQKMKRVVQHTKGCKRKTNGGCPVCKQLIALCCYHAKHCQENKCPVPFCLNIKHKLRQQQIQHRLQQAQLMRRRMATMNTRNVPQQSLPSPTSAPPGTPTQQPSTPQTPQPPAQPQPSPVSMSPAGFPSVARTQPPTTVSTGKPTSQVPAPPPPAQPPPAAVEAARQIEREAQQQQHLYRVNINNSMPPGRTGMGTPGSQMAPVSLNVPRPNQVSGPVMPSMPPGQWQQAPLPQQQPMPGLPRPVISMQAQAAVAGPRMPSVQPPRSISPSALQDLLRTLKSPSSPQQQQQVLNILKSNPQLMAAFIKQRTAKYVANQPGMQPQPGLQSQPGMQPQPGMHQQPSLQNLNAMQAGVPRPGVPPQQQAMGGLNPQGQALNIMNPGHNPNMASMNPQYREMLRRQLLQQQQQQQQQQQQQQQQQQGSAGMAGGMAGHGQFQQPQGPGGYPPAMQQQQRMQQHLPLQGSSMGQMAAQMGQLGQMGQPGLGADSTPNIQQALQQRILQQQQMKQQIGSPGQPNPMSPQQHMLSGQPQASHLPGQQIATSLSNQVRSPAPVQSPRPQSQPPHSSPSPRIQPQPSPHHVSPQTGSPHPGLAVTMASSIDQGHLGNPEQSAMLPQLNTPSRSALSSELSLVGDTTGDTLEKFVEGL
- Test Name: Binding affinity to human partial length DNA-tagged CREBBP expressed in bacteria by BROMOscan method
Property Measured: Kd

[ask] Any idea what Kd was measured for `CC(=O)N1c2ccc(C3=CCNCC3)cc2N(Cc2ccccc2CO)C[C@@H]1C1CC1` ?
[reply] > 30.2 µM

====

- Assay Target: Bromodomain testis-specific protein (Homo sapiens)
- Test Name: Inhibition of BRDT BD1 (unknown origin) after 30 mins by TR-FRET assay
Please provide measured IC50 for the entries that follow.
Kindly answer with a numeric value in nM, unit omitted.

[ask] Test system Bromodomain testis-specific protein (Homo sapiens); read-out IC50; what value for `CC(=O)N1c2ccc(-c3cnc(C(N)=O)nc3)cc2N(Cc2ccccc2CO)C[C@@H]1C1CC1` ?
[reply] 501

[ask] Test system Bromodomain testis-specific protein (Homo sapiens); read-out IC50; what value for `CC(=O)N1c2ccc(C3=CCNCC3)cc2N(Cc2ccccc2CO)C[C@@H]1C1CC1` ?
[reply] 1580

====

Please provide measured pIC50 for the entries that follow.
- Assay Target: Bromodomain-containing protein 3 (Homo sapiens, UniProt Q15059)
- Sequence (Q15059 whole entry): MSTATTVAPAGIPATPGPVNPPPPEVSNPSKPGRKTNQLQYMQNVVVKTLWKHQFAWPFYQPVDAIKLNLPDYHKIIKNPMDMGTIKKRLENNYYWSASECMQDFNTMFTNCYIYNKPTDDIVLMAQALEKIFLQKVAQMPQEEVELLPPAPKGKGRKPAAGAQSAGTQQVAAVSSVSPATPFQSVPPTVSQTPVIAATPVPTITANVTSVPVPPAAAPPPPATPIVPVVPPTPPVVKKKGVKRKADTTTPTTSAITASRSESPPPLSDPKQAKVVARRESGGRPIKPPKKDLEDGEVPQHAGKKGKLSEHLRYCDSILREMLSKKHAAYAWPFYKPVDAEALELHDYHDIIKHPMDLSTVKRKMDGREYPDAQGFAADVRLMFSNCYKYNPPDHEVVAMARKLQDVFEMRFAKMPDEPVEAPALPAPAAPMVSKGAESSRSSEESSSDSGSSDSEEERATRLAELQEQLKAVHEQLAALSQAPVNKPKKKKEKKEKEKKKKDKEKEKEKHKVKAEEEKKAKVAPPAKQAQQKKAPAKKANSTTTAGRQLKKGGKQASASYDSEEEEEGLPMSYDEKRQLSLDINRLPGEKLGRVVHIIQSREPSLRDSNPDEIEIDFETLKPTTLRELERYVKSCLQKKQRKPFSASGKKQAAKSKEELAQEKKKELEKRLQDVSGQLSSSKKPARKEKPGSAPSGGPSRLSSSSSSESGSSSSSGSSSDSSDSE
- Test Name: Inhibition of BRD3 BD2 (unknown origin) after 30 mins by TR-FRET assay
Give only the number. pIC50 is defined as minus log10 of concentration in molar units.

[ask] Test system Bromodomain-containing protein 3 (Homo sapiens, UniProt Q15059); read-out pIC50; what value for `CC(=O)N1c2ccc(-c3cnc(C(N)=O)nc3)cc2N(Cc2ccccc2CO)C[C@@H]1C1CC1` ?
[reply] 7.50

[ask] Test system Bromodomain-containing protein 3 (Homo sapiens, UniProt Q15059); read-out pIC50; what value for `CC(=O)N1c2ccc(C3=CCNCC3)cc2N(Cc2ccccc2CO)C[C@@H]1C1CC1` ?
[reply] 7.30

====

- Assay Target: Bromodomain-containing protein 4 (Homo sapiens, UniProt O60885, Y390A)
pIC50: −log10 of the molar value.
Hi, to clarify the labels: yes covers pIC50 from 5 upward, no covers anything below 5.

[ask] API: above_or_equal(metric=pIC50, cutoff=5) for item CCC1CN(Cc2ccccc2)c2cc(C3=CCNCC3)ccc2N1C(C)=O (stereo not given)
[reply] yes

[ask] API: above_or_equal(metric=pIC50, cutoff=5) for item CC(=O)N1c2ccccc2N(Cc2ccc(Cl)cc2C(=O)O)CC1C1CC1 (stereo not given)
[reply] no

[ask] API: above_or_equal(metric=pIC50, cutoff=5) for item CCC1CN(Cc2ccccc2)c2cc(-c3cnc(C(N)=O)nc3)ccc2N1C(C)=O (stereo not given)
[reply] yes

[ask] API: above_or_equal(metric=pIC50, cutoff=5) for item CCC1CN(Cc2ccccc2)c2cc(-c3cnc(C)cn3)ccc2N1C(C)=O (stereo not given)
[reply] yes

[ask] API: above_or_equal(metric=pIC50, cutoff=5) for item CC(=O)N1c2ccccc2N(Cc2ccccc2CN)CC1C1CC1 (stereo not given)
[reply] no

[ask] API: above_or_equal(metric=pIC50, cutoff=5) for item CC(=O)N1c2ccccc2N(Cc2ccccc2CC(=O)O)CC1C1CC1 (stereo not given)
[reply] no

[ask] API: above_or_equal(metric=pIC50, cutoff=5) for item CCC1CN(Cc2ccccc2)c2cc(-c3cccnc3)ccc2N1C(C)=O (stereo not given)
[reply] yes

[ask] API: above_or_equal(metric=pIC50, cutoff=5) for item CC(=O)N1c2ccccc2N(Cc2cccc(C)c2)CC1C (stereo not given)
[reply] no

[ask] API: above_or_equal(metric=pIC50, cutoff=5) for item CC(=O)N1c2ccccc2N(Cc2cccc(CO)c2)CC1C1CC1 (stereo not given)
[reply] no

[ask] API: above_or_equal(metric=pIC50, cutoff=5) for item CC(=O)N1c2ccccc2N(Cc2ccccc2C(=O)O)CC1C (stereo not given)
[reply] no

[ask] API: above_or_equal(metric=pIC50, cutoff=5) for item CC(=O)N1c2ccccc2N(Cc2cccc(O)c2)CC1C1CC1 (stereo not given)
[reply] no

[ask] API: above_or_equal(metric=pIC50, cutoff=5) for item `CC(=O)N1c2ccc(-c3cnc(C(N)=O)nc3)cc2N(Cc2ccccc2CO)C[C@@H]1C1CC1`
[reply] yes

[ask] API: above_or_equal(metric=pIC50, cutoff=5) for item CCC1CN(Cc2ccccc2)c2cc(Br)ccc2N1C(C)=O (stereo not given)
[reply] yes

[ask] API: above_or_equal(metric=pIC50, cutoff=5) for item CC(=O)N1CC(C)N(Cc2ccccc2)c2ccccc21 (stereo not given)
[reply] no

[ask] API: above_or_equal(metric=pIC50, cutoff=5) for item CC(=O)N1c2ccccc2N(Cc2ccccc2CO)CC1C1CC1 (single isomer, unassigned; enantiomer 2)
[reply] no

[ask] API: above_or_equal(metric=pIC50, cutoff=5) for item CC(=O)N1c2ccccc2N(Cc2ccccc2)CC1C1CC1 (stereo not given)
[reply] no

[ask] API: above_or_equal(metric=pIC50, cutoff=5) for item CC(=O)N1c2ccccc2N(Cc2ccccc2C(N)=O)CC1C1CC1 (stereo not given)
[reply] no

[ask] API: above_or_equal(metric=pIC50, cutoff=5) for item CC(=O)N1c2ccccc2N(Cc2ccccc2C#N)CC1C1CC1 (stereo not given)
[reply] no

[ask] API: above_or_equal(metric=pIC50, cutoff=5) for item CCC1CN(Cc2ccccc2)c2cc(-c3ccc(=O)[nH]c3)ccc2N1C(C)=O (stereo not given)
[reply] yes

[ask] API: above_or_equal(metric=pIC50, cutoff=5) for item COc1ccccc1CN1CC(C2CC2)N(C(C)=O)c2ccccc21 (stereo not given)
[reply] no

[ask] API: above_or_equal(metric=pIC50, cutoff=5) for item CC(=O)N1c2ccccc2N(Cc2ccccc2)CC1C (stereo not given)
[reply] no

[ask] API: above_or_equal(metric=pIC50, cutoff=5) for item CC(=O)N1c2ccccc2N(Cc2ccccc2N(C)C)CC1C1CC1 (stereo not given)
[reply] no

[ask] API: above_or_equal(metric=pIC50, cutoff=5) for item CC(=O)N1c2ccccc2N(Cc2ccccc2C(=O)O)CC1C1CC1 (stereo not given)
[reply] no

[ask] API: above_or_equal(metric=pIC50, cutoff=5) for item CCC1CN(Cc2ccccc2)c2cc(-c3ccncc3OC)ccc2N1C(C)=O (stereo not given)
[reply] yes

[ask] API: above_or_equal(metric=pIC50, cutoff=5) for item CCC1CN(Cc2ccccc2)c2cc(-c3ccc(C(N)=O)nc3)ccc2N1C(C)=O (stereo not given)
[reply] yes

[ask] API: above_or_equal(metric=pIC50, cutoff=5) for item CCC1CN(Cc2ccccc2)c2cc(-c3cnoc3)ccc2N1C(C)=O (stereo not given)
[reply] yes

[ask] API: above_or_equal(metric=pIC50, cutoff=5) for item CC(=O)N1c2ccccc2N(Cc2ccccc2CO)CC1C1CC1 (single isomer, unassigned)
[reply] no

[ask] API: above_or_equal(metric=pIC50, cutoff=5) for item CCC1CN(Cc2ccccc2)c2cc(-c3cnc(C#N)nc3)ccc2N1C(C)=O (stereo not given)
[reply] yes

[ask] API: above_or_equal(metric=pIC50, cutoff=5) for item CCC1CN(Cc2ccccc2)c2cc(-c3cccc(C(N)=O)c3)ccc2N1C(C)=O (stereo not given)
[reply] yes

[ask] API: above_or_equal(metric=pIC50, cutoff=5) for item CC(=O)N1c2ccccc2N(Cc2ccccc2O)CC1C1CC1 (stereo not given)
[reply] no

[ask] API: above_or_equal(metric=pIC50, cutoff=5) for item CC(=O)N1c2ccccc2N(Cc2cc(C)ccc2C(=O)O)CC1C1CC1 (stereo not given)
[reply] no

[ask] API: above_or_equal(metric=pIC50, cutoff=5) for item CCC1CN(Cc2ccccc2)c2cc(-c3cncnc3)ccc2N1C(C)=O (stereo not given)
[reply] yes

[ask] API: above_or_equal(metric=pIC50, cutoff=5) for item `CC(=O)N1CCN(Cc2cccc(C)c2)c2ccccc21`
[reply] no

[ask] API: above_or_equal(metric=pIC50, cutoff=5) for item CCC1CN(Cc2ccccc2)c2cc(C3=CCOCC3)ccc2N1C(C)=O (stereo not given)
[reply] yes

[ask] API: above_or_equal(metric=pIC50, cutoff=5) for item `CC(=O)N1CCN(Cc2ccccc2C(=O)O)c2ccccc21`
[reply] no

[ask] API: above_or_equal(metric=pIC50, cutoff=5) for item `CC(=O)N1c2ccc(C3=CCNCC3)cc2N(Cc2ccccc2CO)C[C@@H]1C1CC1`
[reply] yes

[ask] API: above_or_equal(metric=pIC50, cutoff=5) for item CC(=O)N1c2ccccc2N(Cc2ccccc2CO)CC1C1CC1 (racemic)
[reply] no

[ask] API: above_or_equal(metric=pIC50, cutoff=5) for item CC(=O)N1c2ccccc2N(Cc2cccc(C)c2)CC1C1CC1 (stereo not given)
[reply] no

[ask] API: above_or_equal(metric=pIC50, cutoff=5) for item CCC1CN(Cc2ccccc2)c2cc(-c3ccc(C(N)=O)cc3)ccc2N1C(C)=O (stereo not given)
[reply] yes

[ask] API: above_or_equal(metric=pIC50, cutoff=5) for item CCC1CN(Cc2ccccc2)c2cc(-c3cn[nH]c3)ccc2N1C(C)=O (stereo not given)
[reply] yes

[ask] API: above_or_equal(metric=pIC50, cutoff=5) for item CC(=O)N1c2ccccc2N(Cc2ccccc2OCCO)CC1C1CC1 (stereo not given)
[reply] no

Values compiled from ChEMBL document CHEMBL4184317.
